biological target: LHRH (Rattus norvegicus, UniProt P30969); construct: evaluated in an in vitro test for LHRH antagonist potency (pA2); endogenous in cells; host or cells: pituitary cells (rat, from my own knowledge of the cited method); assay: in vitro test for LHRH antagonist potency (pA2); assay type: cell-based; conditions: negative logarithm of the antagonist concentration required to shift the response curve produced by the agonist leuprolide to two-fold higher concentration
Sequence (P30969 whole entry): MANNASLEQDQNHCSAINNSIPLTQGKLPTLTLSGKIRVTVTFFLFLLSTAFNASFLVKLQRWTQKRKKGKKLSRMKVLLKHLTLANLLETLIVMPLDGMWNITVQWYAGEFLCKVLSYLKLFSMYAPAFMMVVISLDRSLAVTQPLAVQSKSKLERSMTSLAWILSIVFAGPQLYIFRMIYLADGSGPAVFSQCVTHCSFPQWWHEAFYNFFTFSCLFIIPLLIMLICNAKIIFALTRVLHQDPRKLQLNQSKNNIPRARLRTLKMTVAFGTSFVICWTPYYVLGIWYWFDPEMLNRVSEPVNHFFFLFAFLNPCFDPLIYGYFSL
Square brackets hold non-standard residues; d marks the D form. Peptide text beside a SMILES is read from it. * marks the point of attachment. dPhe(4-Cl) = N[C@H](Cc1ccc(Cl)cc1)C(=O)O; d2Nal = N[C@H](Cc1ccc2ccccc2c1)C(=O)O; Lys(iPr) = CC(C)NCCCC[C@H](N)C(=O)O; NMeY = CN[C@@H](Cc1ccc(O)cc1)C(=O)O; d3Pal = N[C@H](Cc1cccnc1)C(=O)O; Nicotinoyl = O=C(c1cccnc1)*; X2 = O=C(CCc1ccc2ccccc2c1)*; Bz = O=C(c1ccccc1)*
Measured Attribute: Kb

- CC(C)C[C@H](NC(=O)[C@@H](CCCCNC(=O)c1cccnc1)NC(=O)[C@H](Cc1ccc(O)cc1)N(C)C(=O)[C@H](CO)NC(=O)[C@@H](Cc1cccnc1)NC(=O)[C@@H](Cc1ccc(Cl)cc1)NC(=O)[C@@H](Cc1ccc2ccccc2c1)NC(=O)CCc1ccc2ccccc2c1)C(=O)N[C@@H](CCCCNC(C)C)C(=O)N1CCC[C@H]1C(=O)N[C@H](C)C(N)=O [Example 2o] (X2-[d2Nal][dPhe(4-Cl)][d3Pal]S[NMeY][dK](Nicotinoyl)L[Lys(iPr)]P[dA]-NH2): 0.0794 nM

Proceeding to the next compound to report its Kb.
Q: Bench note: what Kb did CC(C)C[C@H](NC(=O)[C@@H](CCCCNC(=O)c1cccnc1)NC(=O)[C@H](Cc1ccc(O)cc1)N(C)C(=O)[C@H](CO)NC(=O)[C@@H](Cc1cccnc1)NC(=O)[C@@H](Cc1ccc(Cl)cc1)NC(=O)[C@@H](Cc1ccc2ccccc2c1)NC(=O)c1ccccc1)C(=O)N[C@@H](CCCCNC(C)C)C(=O)N1CCC[C@H]1C(=O)N[C@H](C)C(N)=O [Example 2j] (Bz-[d2Nal][dPhe(4-Cl)][d3Pal]S[NMeY][dK](Nicotinoyl)L[Lys(iPr)]P[dA]-NH2) show?
Result: 0.0501 nM
